Origin of values: paper PMC10996005

target: HIF-1α PAS-B domain (Homo sapiens); construct: made in house; assay: MST binding to the PAS-B domain of HIF-1α; conditions: MST; mean ± SEM, n = 2 (n = 1 for most C1 analogues, n = 3 in Figure S2); read-out: KD for HIF-1α PAS-B
Sequence (Q16665 238-349 limits assumed): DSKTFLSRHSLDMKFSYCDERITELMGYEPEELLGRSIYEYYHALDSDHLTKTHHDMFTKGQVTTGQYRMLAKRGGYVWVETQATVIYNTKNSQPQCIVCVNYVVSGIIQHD
Where a SMILES comes first, the peptide text is derived from it.
Property Name: Kd (µM)

1. CC[C@H](C)[C@@H]1NC(=O)[C@H](C)NC(=O)[C@H](CC(C)C)NC(=O)[C@H](CCCNC(=N)N)NC(=O)[C@H](CS)NC(=O)[C@H](Cc2ccccc2)NC1=O [cyclo-CRLAIF] (cyclo(CRLAIF)) :: 12.8

###

Here, each record is paired with measured Kd data.
target: HIF-1α PAS-B domain (Homo sapiens); construct: made in house; assay: MST binding to the PAS-B domain of HIF-1α; settings: MST; mean ± SEM, n = 2 (n = 1 for most C1 analogues, n = 3 in Figure S2); read-out: KD for HIF-1α PAS-B
Where a SMILES comes first, the peptide text is derived from it. [ ]: non-standard residue; d: D form. Phe(4-CN) = N#Cc1ccc(C[C@H](N)C(=O)O)cc1; Phe(4-Cl) = N[C@@H](Cc1ccc(Cl)cc1)C(=O)O; hLeu = CC(C)CC[C@H](N)C(=O)O; Nle = CCCC[C@H](N)C(=O)O; Nva = CCC[C@H](N)C(=O)O; Abu = CC[C@H](N)C(=O)O
Property Name: Kd (µM)

1. CC[C@H](C)[C@@H]1NC(=O)[C@H](CC(C)C)NC(=O)[C@H](CCCNC(=N)N)NC(=O)[C@H](CS)NC(=O)[C@H](Cc2ccc(Cl)cc2)NC(=O)[C@H]([C@@H](C)CC)NC1=O [Cl, cyclo-CRLII(4-Cl)F] (cyclo(CRLII[Phe(4-Cl)])) :: 1.2
2. CCCC[C@@H]1NC(=O)[C@H]([C@@H](C)CC)NC(=O)[C@H](CC(C)C)NC(=O)[C@H](CCCNC(=N)N)NC(=O)[C@H](CS)NC(=O)[C@H](Cc2ccccc2)NC1=O [Nle, cyclo-CRLINleF] (cyclo(CRLI[Nle]F)) :: 7.5
3. CC[C@H](C)[C@@H]1NC(=O)[C@H](C)NC(=O)[C@H](CCCNC(=N)N)NC(=O)[C@H](CS)NC(=O)[C@H](Cc2ccccc2)NC(=O)[C@H]([C@@H](C)CC)NC1=O [cyclo-CRAIIF] (cyclo(CRAIIF)) :: 52.7
4. CC[C@@H]1NC(=O)[C@H]([C@@H](C)CC)NC(=O)[C@H](CC(C)C)NC(=O)[C@H](CCCNC(=N)N)NC(=O)[C@H](CS)NC(=O)[C@H](Cc2ccccc2)NC1=O [Abu, cyclo-CRLIAbuF] (cyclo([Abu]FCRLI)) :: 73.4
5. CC[C@H](C)[C@@H]1NC(=O)[C@H](CC(C)C)NC(=O)[C@H](CCCNC(=N)N)NC(=O)[C@H](CS)NC(=O)[C@H](Cc2ccc(C#N)cc2)NC(=O)[C@H]([C@@H](C)CC)NC1=O [CN, cyclo-CRLII(4-CN)F] (cyclo(CRLII[Phe(4-CN)])) :: 4.4
6. CC[C@H](C)[C@@H]1NC(=O)[C@H](CC(C)C)NC(=O)[C@H](CCCNC(=N)N)NC(=O)[C@H](CS)NC(=O)[C@H](Cc2ccccc2)NC(=O)[C@H](CCC(C)C)NC1=O [hL, cyclo-CRLIhLF] (cyclo(CRLI[hLeu]F)) :: 4.4
7. CCC[C@@H]1NC(=O)[C@H]([C@@H](C)CC)NC(=O)[C@H](CC(C)C)NC(=O)[C@H](CCCNC(=N)N)NC(=O)[C@H](CS)NC(=O)[C@H](Cc2ccccc2)NC1=O [Nva, cyclo-CRLINvaF] (cyclo(CRLI[Nva]F)) :: 22.1
